- target or system: human 5-HT5A receptor (Homo sapiens (Human), UniProt P47898)
- Sequence (P47898 whole entry): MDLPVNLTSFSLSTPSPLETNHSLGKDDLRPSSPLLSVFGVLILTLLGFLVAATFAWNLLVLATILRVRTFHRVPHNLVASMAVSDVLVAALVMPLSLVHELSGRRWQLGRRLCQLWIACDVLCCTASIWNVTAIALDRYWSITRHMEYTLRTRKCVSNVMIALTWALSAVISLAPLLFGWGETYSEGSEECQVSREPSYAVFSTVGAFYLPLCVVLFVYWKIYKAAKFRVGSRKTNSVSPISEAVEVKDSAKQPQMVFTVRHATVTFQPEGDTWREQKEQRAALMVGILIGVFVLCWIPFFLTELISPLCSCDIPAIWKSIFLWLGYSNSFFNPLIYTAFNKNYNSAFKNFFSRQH
- experiment summary: Test on a human 5-HT5A receptor binding inhibition ([3H]5-CT)
- reported conditions: [3H]5-CT binding, membrane from HEK293 cells expressing human 5-HT5A receptor; Ki calculated from IC50
pKi: −log10 of the molar value.
reported metric: pKi

NC(N)=NC(=O)c1ccc2nccc(-c3c(F)cc(F)cc3Cl)c2c1 [Example 8] | 8.00 to 9.00

Request: Report pKi for NC(N)=NC(=O)c1ccc2c(Cl)cnc(-c3cccc(Cl)c3Cl)c2c1 [Example 100] please.
Response: 7.00 to 8.00

Request: Report pKi for Cc1cc2ccc(C(=O)N=C(N)N)cc2c(-c2c(F)cccc2F)n1 [Example 155] please.
Response: 7.00 to 8.00
